- TESTED ON: Histone-lysine N-methyltransferase EHMT2 (Homo sapiens, UniProt Q96KQ7)
- ASSAY REMARKS: Inhibition of G9a in human MCF7 cells assessed as reduction of H3K9me2 after 48 hrs by In-Cell Western assay
- Type: cell-based
EXPERIMENTAL ENDPOINT: pIC50
Would you please state pIC50, meaning minus log10 of the concentration in mol/L, as a bare number?

Qu. What pIC50 value was documented for this compound, COc1cc2c(NC3CCN(CC4CCCCC4)CC3)nc(N3CCCN(C(C)C)CC3)nc2cc1OCCCN1CCCCC1 ?
Ans. 7.74

* * *

- TESTED ON: Histone-lysine N-methyltransferase EHMT2 (Homo sapiens)
- ASSAY REMARKS: Inhibition of G9a assessed as hydrolysis of S-adenosyl-L-homocysteine after 2 mins by SAHH-coupled fluorescence assay
In this section, each of the compounds is paired with its reported pIC50.
Would you please state pIC50, meaning minus log10 of the concentration in mol/L, as a bare number?

mol_smiles=COc1cc2c(NC3CCN(C(C)C)CC3)nc(N3CCCN(C)CC3)nc2cc1OCCCN1CCCC1 tested_on="Histone-lysine N-methyltransferase EHMT2 (Homo sapiens)" result=8.00

Now for a further compound.
Qu. What pIC50 value was documented for this compound, COc1cc2c(NC3CCN(C(C)C)CC3)nc(N3CCCCCC3)nc2cc1OCCCN1CCCC1 ?
Ans. 7.70

* * *

- System: MDA-MB-231
- ASSAY REMARKS: Cytotoxicity against human MDA-MB-231 cells assessed as cell viability after 48 hrs by MTT assay
- Assay type: functional, cell-based
- TEST CONTEXT: MDA-MB-231, 48 h
EXPERIMENTAL ENDPOINT: pEC50
Would you please state pEC50, meaning minus log10 of the concentration in mol/L, as a bare number?

Check out these entries, answers already filled in.
mol_smiles=COc1cc2c(NC3CCN(C(C)C)CC3)nc(N3CCCN(CC4CCCCC4)CC3)nc2cc1OCCCN1CCCC1 experimental_endpoint=pEC50 result=6.12
mol_smiles=COc1cc2c(NC3CCN(C(C)C)CC3)nc(N3CCCN(Cc4ccccc4)CC3)nc2cc1OCCCN1CCCC1 experimental_endpoint=pEC50 result=6.22
mol_smiles=COc1cc2c(NC3CCN(C(C)C)CC3)nc(N3CCCN(C(C)C)CC3)nc2cc1OCCCN1CCCC1 experimental_endpoint=pEC50 result=5.35

Now for a further molecule.
Qu. What pEC50 value was documented for this molecule, COc1cc2c(NC3CCN(C(C)C)CC3)nc(N3CCCCC3)nc2cc1OCCCN1CCCC1 ?
Ans. 5.15

* * *

- TESTED ON: Histone-lysine N-methyltransferase EHMT2 (Homo sapiens, UniProt Q96KQ7)
- Sequence (Q96KQ7 whole entry): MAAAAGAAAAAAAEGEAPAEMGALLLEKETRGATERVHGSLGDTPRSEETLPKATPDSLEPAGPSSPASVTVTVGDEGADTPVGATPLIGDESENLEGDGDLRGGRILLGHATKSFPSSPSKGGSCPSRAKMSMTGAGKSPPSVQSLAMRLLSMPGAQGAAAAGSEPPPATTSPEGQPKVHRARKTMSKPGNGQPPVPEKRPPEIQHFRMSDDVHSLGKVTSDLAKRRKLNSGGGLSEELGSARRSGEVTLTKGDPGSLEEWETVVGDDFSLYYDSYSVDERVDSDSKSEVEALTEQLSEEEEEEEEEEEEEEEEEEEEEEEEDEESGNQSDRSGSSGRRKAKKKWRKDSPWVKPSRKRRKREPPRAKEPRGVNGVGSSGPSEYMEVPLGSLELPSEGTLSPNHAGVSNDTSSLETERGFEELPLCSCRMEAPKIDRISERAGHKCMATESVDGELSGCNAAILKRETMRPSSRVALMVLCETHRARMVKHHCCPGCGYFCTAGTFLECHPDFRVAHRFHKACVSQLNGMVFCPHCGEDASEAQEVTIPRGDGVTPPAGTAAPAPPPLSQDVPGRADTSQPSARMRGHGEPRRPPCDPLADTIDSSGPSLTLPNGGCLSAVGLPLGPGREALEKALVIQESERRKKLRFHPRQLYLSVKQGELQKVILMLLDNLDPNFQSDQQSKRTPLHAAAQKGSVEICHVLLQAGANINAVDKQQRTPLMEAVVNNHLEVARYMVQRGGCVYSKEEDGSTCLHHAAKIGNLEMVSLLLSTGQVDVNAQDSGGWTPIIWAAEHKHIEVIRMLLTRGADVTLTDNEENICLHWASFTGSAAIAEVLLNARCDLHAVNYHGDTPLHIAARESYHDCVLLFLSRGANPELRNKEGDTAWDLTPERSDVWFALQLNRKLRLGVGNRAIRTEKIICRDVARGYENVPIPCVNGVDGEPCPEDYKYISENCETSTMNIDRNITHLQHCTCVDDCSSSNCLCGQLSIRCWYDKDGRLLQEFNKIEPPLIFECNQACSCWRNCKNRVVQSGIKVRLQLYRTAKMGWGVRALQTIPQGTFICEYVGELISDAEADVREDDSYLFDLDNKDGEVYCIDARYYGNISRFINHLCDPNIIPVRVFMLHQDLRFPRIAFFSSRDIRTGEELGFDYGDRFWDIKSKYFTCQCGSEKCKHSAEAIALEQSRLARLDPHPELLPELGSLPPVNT
- ASSAY REMARKS: Inhibition of G9a in human MDA-MB-231 cells assessed as reduction of H3K9me2 after 48 hrs by In-Cell Western assay
- Type: cell-based
EXPERIMENTAL ENDPOINT: pIC50
Would you please state pIC50, meaning minus log10 of the concentration in mol/L, as a bare number?

mol_smiles=COc1cc2c(NC3CCN(C(C)C)CC3)nc(N3CCCN(c4ccccc4)CC3)nc2cc1OCCCN1CCCC1 experimental_endpoint=pIC50 result=6.66
mol_smiles=COc1cc2c(NC3CCN(C(C)C)CC3)nc(N3CCCCC3)nc2cc1OCCCN1CCCC1 experimental_endpoint=pIC50 result=6.82
mol_smiles=COc1cc2c(NC3CCN(C(C)C)CC3)nc(N3CCCN(C)CC3)nc2cc1OCCCN1CCCC1 experimental_endpoint=pIC50 result=6.28
mol_smiles=COc1cc2c(NC3CCN(C)CC3)nc(N3CCCN(C)CC3)nc2cc1OCCOCCN(C)C experimental_endpoint=pIC50 result=4.96
mol_smiles=COc1cc2c(NC3CCN(C(C)C)CC3)nc(N3CCCCCC3)nc2cc1OCCCN1CCCC1 experimental_endpoint=pIC50 result=7.00

Qu. What pIC50 value was documented for this molecule, COc1cc2c(NC3CCN(C(C)C)CC3)nc(C3CCCCC3)nc2cc1OCCOCCN(C)C ?
Ans. 6.74

Qu. What pIC50 value was documented for this molecule, COc1cc2c(NC3CCN(C(C)C)CC3)nc(C3CCCCC3)nc2cc1OCCCN1CCCCC1 ?
Ans. 6.59

Qu. What pIC50 value was documented for this molecule, COc1cc2c(NC3CCN(CC4CCCCC4)CC3)nc(N3CCCN(C(C)C)CC3)nc2cc1OCCCN1CCCCC1 ?
Ans. 7.60

Qu. What pIC50 value was documented for this molecule, COc1cc2c(NC3CCN(C(C)C)CC3)nc(N3CCCN(CC4CCCCC4)CC3)nc2cc1OCCCN1CCCC1 ?
Ans. 7.03

Qu. What pIC50 value was documented for this molecule, COc1cc2c(NC3CCN(C(C)C)CC3)nc(N3CCCN(C(C)C)CC3)nc2cc1OCCCN1CCCCC1 ?
Ans. 7.27

* * *

- TESTED ON: UniProt:Q96KQ7
- ASSAY REMARKS: Inhibition of G9a assessed as hydrolysis of S-adenosyl-L-homocysteine after 2 mins by SAHH-coupled fluorescence assay
EXPERIMENTAL ENDPOINT: log10(IC50) (log10 of the value in nM)
// units: nM (pre-log); metric: IC50; scale: log10

Check out these entries, answers already filled in.
mol_smiles=COc1cc2c(NC3CCN(C4CCCCC4)CC3)nc(N3CCCN(C)CC3)nc2cc1OCCCN1CCCCC1 result=1.04
mol_smiles=COc1cc2c(NC3CCN(C(C)C)CC3)nc(N3CCCN(C(C)C)CC3)nc2cc1OCCCN1CCCC1 result=0.30
mol_smiles=COc1cc2c(NC3CCN(C(C)C)CC3)nc(C3CCCCC3)nc2cc1OCCCN1CCCCC1 result=2.04
mol_smiles=COc1cc2c(NC3CCN(C(C)C)CC3)nc(N3CCCN(Cc4ccccc4)CC3)nc2cc1OCCCN1CCCC1 result=0.95

Qu. What log10(IC50) value was documented for this compound, COc1cc2c(NC3CCN(C(C)C)CC3)nc(N3CCCCCC3)nc2cc1OCCCN1CCCCC1 ?
Ans. 1.49

Qu. What log10(IC50) value was documented for this compound, COc1cc2c(NC3CCN(C(C)C)CC3)nc(C3CCCCC3)nc2cc1OCCOCCN(C)C ?
Ans. 1.32

Qu. What log10(IC50) value was documented for this compound, COc1cc2c(NC3CCN(C(C)C)CC3)nc(N3CCCCC3)nc2cc1OCCCN1CCCC1 ?
Ans. 1.20
